Examples of compounds with documented composite z-score follow.
- target: Albumin (Bos taurus) (UniProt P02769)
- Sequence (P02769 whole entry, looked up): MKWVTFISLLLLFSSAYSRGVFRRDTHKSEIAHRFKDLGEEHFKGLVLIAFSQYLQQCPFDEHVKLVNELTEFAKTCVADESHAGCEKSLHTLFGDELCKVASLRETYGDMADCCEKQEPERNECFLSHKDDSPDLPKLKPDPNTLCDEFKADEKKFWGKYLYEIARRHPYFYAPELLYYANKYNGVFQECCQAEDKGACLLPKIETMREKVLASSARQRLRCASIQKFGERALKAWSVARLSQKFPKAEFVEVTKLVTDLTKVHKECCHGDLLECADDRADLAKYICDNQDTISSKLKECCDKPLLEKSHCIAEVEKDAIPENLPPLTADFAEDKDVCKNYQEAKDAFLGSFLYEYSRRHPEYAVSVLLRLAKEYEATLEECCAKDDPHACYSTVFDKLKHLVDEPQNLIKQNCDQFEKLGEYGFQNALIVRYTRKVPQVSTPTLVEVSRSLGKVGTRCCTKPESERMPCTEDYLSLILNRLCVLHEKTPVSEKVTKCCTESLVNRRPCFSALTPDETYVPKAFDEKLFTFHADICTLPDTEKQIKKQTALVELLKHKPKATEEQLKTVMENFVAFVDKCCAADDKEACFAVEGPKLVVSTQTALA
- assay-remarks: compounds binding labelled BSA control protein – biochemical, small-molecule microarray, Alexa647 label, 635/667 nm fluorescence, artefact control for SMM control protein annotation, profiling panel (AID 1118);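 further: score merges 667 nm emission intensity and signal-to-noise per printed compound spot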
- measurement-parameters: BSA-A647 binding, fluorescence 635 nm, higher = more signal
Lab note: record just the number, no unit beside it.

| compound | composite z-score |
| --- | --- |
| COc1ccc(C(=O)Nc2cccc(CN3C(=O)[C@@]4(O[C@@H](CC(=O)N5Cc6ccccc6C[C@H]5CO)[C@H]([Si](C)(C)c5ccc(OC)cc5)[C@H]4C)c4ccccc43)c2)cc1 | -1.04 |
| CCOC(=O)C[C@H]1[C@H](OC(=O)c2ccc(C(=O)c3ccccc3)cc2)[C@@H](NC(=O)c2ccc3ccccc3n2)c2cc(OCCCO)ccc2N1C(=O)c1ccc2ccccc2n1 | 0.802 |

Next, consider the following compound.
Q: Please look at Cc1ccccc1/C=C/C=O and tell me its recorded composite z-score on Albumin (Bos taurus) (UniProt P02769).
Ans: -0.699

Each recorded value in this set is attributed to PubChem BioAssay.
